These data points were gathered from patent US20060287360A1.

Form field: pIC50 (one value per entry).
Target: S. aureus MRS (Staphylococcus aureus)
Sequence (Q5HII6 whole entry): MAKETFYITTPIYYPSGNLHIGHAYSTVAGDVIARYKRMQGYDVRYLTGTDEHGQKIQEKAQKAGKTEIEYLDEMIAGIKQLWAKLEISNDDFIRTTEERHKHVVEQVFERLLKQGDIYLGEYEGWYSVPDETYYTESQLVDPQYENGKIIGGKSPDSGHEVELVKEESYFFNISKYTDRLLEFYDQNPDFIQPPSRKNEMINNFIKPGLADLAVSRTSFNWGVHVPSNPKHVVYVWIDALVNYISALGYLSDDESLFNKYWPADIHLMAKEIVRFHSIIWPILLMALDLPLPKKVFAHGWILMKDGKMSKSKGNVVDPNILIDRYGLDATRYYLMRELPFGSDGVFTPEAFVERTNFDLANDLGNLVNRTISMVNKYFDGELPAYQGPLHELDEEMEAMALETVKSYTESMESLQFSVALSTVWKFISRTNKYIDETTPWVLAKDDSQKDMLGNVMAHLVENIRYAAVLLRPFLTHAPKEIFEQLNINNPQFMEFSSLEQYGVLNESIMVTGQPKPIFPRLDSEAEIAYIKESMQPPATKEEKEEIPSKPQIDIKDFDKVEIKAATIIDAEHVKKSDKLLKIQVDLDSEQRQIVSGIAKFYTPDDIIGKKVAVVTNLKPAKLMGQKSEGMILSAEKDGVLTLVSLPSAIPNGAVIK
pIC50: −log10 of the molar value.
readout name: pIC50

compound	result
COc1cc(CNCCCNc2nn3nccc3[nH]2)c2[nH]cc(Cl)c2c1.Cl.Cl [Example 1, dihydrochloride]	> 8.00
Cc1c(CNCCCNc2nn3nccc3[nH]2)sc(Br)c1Br.Cl.Cl [Example 2, dihydrochloride]	> 8.00
